- ASSAY_PROTOCOL: self-splicing fitness, log relative to wild type (ln ratio); higher = more splicing; Tetrahymena group I intron in knt gene, E. coli kanamycin selection, DiMSum; sequences stand for … in CUCUCU…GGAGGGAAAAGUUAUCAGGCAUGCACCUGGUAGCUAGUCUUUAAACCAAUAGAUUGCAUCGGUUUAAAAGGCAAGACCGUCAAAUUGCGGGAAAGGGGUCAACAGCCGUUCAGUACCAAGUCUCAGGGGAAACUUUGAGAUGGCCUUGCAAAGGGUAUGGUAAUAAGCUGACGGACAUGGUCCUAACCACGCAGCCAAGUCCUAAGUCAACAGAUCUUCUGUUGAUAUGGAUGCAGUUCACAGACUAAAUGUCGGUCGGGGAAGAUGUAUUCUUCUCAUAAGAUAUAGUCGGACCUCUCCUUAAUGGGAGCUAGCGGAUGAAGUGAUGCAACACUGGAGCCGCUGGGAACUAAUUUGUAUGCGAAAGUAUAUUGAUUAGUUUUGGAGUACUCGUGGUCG;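 also: selection with 25 µg/mL kanamycin versus none on LB agar overnight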
- CONDITION_SUMMARY: 30 °C

CONSTRUCT_SEQUENCE: ACCGAGCAAUAUUACGGGUG
self-splicing fitness (ln): -1.43
//
CONSTRUCT_SEQUENCE: CGGCAGCAAUAUUACGGCAC
self-splicing fitness (ln): -2.58
//
CONSTRUCT_SEQUENCE: CUAUAGCAAUAUUACGCGUA
self-splicing fitness (ln): -1.43
//
CONSTRUCT_SEQUENCE: CCAUAGCAAUAUUACGUAGC
self-splicing fitness (ln): -2.52
//
CONSTRUCT_SEQUENCE: GUAGAGCAAUAUUACGAACA
self-splicing fitness (ln): -2.46
//
CONSTRUCT_SEQUENCE: CAAGAGCAAUAUUACGUCGG
self-splicing fitness (ln): -1.4
//
CONSTRUCT_SEQUENCE: UGCUAGCAAUAUUACGCUUG
self-splicing fitness (ln): -3.74
//
CONSTRUCT_SEQUENCE: GCCUAGCAAUAUUACGAUCG
self-splicing fitness (ln): -2.05
